Target desc: PD-1/PD-L1 (Homo sapiens)
Sequence (Q9NZQ7 19-238 limits assumed): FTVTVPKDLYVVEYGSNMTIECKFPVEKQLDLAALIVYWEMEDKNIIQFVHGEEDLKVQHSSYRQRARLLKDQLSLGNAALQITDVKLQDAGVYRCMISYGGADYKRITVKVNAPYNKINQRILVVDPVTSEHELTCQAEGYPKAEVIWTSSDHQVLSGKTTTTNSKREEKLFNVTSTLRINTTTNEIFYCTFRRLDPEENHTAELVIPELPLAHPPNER
Protocol description: PDL1/PD1 Binding Assay
Condition details: PDL1-6×His 0.3 nM, PD1-Fc-Avi-Biotin 2.5 nM, acceptor/donor beads, Envision reader; read-out: PD-1/PD-L1 PPI IC50
pIC50: −log10 of the molar value.
Quantity name: pIC50

Compound: COc1nc(-c2cccc(-c3cccc(NC(=O)c4ccnn(C)c4=O)c3Cl)c2Cl)ccc1CN1CC(c2nnn[nH]2)C1 [Compound C-26]
pIC50: ≥ 8.00
//
Compound: COc1nc(-c2cccc(-c3cccc(NC(=O)c4ccnn(C)c4=O)c3Cl)c2Cl)ccc1CN1CCC(C)(C(=O)O)CC1 [Compound C-96]
pIC50: ≥ 8.00
//
Compound: COc1nc(-c2cccc(-c3cccc(NC(=O)c4ccnn(C)c4=O)c3Cl)c2Cl)ccc1CN1CCC(F)(C(=O)O)CC1 [Compound C-97]
pIC50: ≥ 8.00

**Query** # lookup: pIC50 of COc1nc(-c2cccc(-c3cccc(NC(=O)c4ccnn(C)c4=O)c3C)c2Cl)cnc1CN1CCC(C(=O)O)CC1 [Compound C-105]
**Result** ≥ 8.00

**Query** # lookup: pIC50 of COc1nc(-c2cccc(-c3cccc(NC(=O)c4ccnn(C)c4=O)c3Cl)c2Cl)ccc1CN1CCC(C(=O)O)CC1 [Compound C-43]
**Result** ≥ 8.00

**Query** # lookup: pIC50 of COc1nc(-c2cccc(-c3cccc(NC(=O)c4ccnn(C)c4=O)c3C)c2Cl)ccc1CN1CCC(C(=O)O)CC1 [Compound C-103]
**Result** ≥ 8.00

**Query** # lookup: pIC50 of COc1nc(-c2cccc(-c3cccc(NC(=O)c4ccnn(C)c4=O)c3Cl)c2Cl)ccc1CN1CCC(c2nnn[nH]2)CC1 [Compound C-95]
**Result** ≥ 8.00

**Query** # lookup: pIC50 of COc1nc(-c2cccc(-c3cccc(NC(=O)c4ccnn(C)c4=O)c3Cl)c2Cl)ccc1CN1CCC2(C(=O)O)CC2C1 (centres unmarked) [Compound C-101]
**Result** ≥ 8.00

* * *

Reported pIC50 values are given for each entry in this list.
Target desc: PD-1/PD-L1 (Homo sapiens)
Protocol description: PDL1/PD1 Binding Assay
Condition details: PDL1-6×His 0.3 nM, PD1-Fc-Avi-Biotin 2.5 nM, acceptor/donor beads, Envision reader; read-out: PD-1/PD-L1 PPI IC50
Experimental: Compounds to be tested were serially diluted in DMSO, and further diluted in assay buffer (25 mM Hepes pH 7.4, 150 mM NaCl, 0.005% Tween 20, BSA 0.01%). Diluted compounds were added to the wells with final concentration of DMSO at 1%. […] The plates were sealed with foil and incubated in the dark for additional 1 h or overnight before reading on an Envision reader. The IC50 values were determined by fitting the curves using a four-parameter equation in Graphpad Prism 8.
pIC50: −log10 of the molar value.

Answered cases to consult:
Molecule: COc1nc(-c2cccc(-c3cccc(NC(=O)c4ccnn(C)c4=O)c3Cl)c2Cl)cnc1CN1CCC(C(=O)O)CC1 [Compound C-104]
Target desc: PD-1/PD-L1 (Homo sapiens)
Quantity name: pIC50
Result: ≥ 8.00
//
Molecule: COc1nc(-c2cccc(-c3cccc(NC(=O)c4ccnn(C)c4=O)c3Cl)c2Cl)ccc1CN1CCC(OC)(C(=O)O)CC1 [Compound C-98]
Target desc: PD-1/PD-L1 (Homo sapiens)
Quantity name: pIC50
Result: ≥ 8.00
//
Molecule: COc1nc(-c2cccc(-c3cccc(NC(=O)c4ccnn(C)c4=O)c3Cl)c2Cl)ccc1CN1CC2CC(C1)C2C(=O)O (stereo not drawn) [Compound C-102]
Target desc: PD-1/PD-L1 (Homo sapiens)
Quantity name: pIC50
Result: ≥ 8.00
//
Molecule: COc1nc(-c2cccc(-c3cccc(NC(=O)c4ccnn(C)c4=O)c3Cl)c2Cl)ccc1CN1C[C@@H]2[C@H](C1)[C@H]2C(=O)O [Compound C-100]
Target desc: PD-1/PD-L1 (Homo sapiens)
Quantity name: pIC50
Result: ≥ 8.00

**Query** # lookup: pIC50 of CCOC(=O)C1CCN(Cc2ncc(-c3cccc(-c4cccc(NC(=O)c5ccnn(C)c5=O)c4Cl)c3Cl)nc2OC)CC1 [Compound C-107]
**Result** ≥ 8.00

**Query** # lookup: pIC50 of CCOC(=O)C1CCN(Cc2ccc(-c3cccc(-c4cccc(NC(=O)c5ccnn(C)c5=O)c4Cl)c3Cl)nc2OC)CC1 [Compound C-51]
**Result** ≥ 8.00
